// data source = PubChem BioAssay AID588487

# TGT: Protein-arginine deiminase type-4 (Homo sapiens)
# RUN_DESCRIPTION: PAD1-4 inhibition by competitive ABPP, late-stage follow-up, orthogonal assay for PAD4 inhibitor project, biochemical, fluorescence, gel-based ABPP, HTS hits (AID 588487)
# MEASUREMENT_CONDITIONS: recombinant PAD1-4, gel-based ABPP, RFA probe fluorescence; PAD4; at 10 µM; stronger effect = higher value
inhibition below 30% gives 0.0; inhibition at or above it gives 1.0.

>  <COMPOUND_STRUCTURE>
COc1ccc(S(=O)(=O)Nc2ccccc2C)cc1

>  <ASSIGNED_CLASS>
1.0

$$$$
>  <COMPOUND_STRUCTURE>
Cc1cc(N(C)NC(=S)Nc2ccccc2)nc(C)n1

>  <ASSIGNED_CLASS>
0.0

$$$$
>  <COMPOUND_STRUCTURE>
Cc1cc(-c2nnc(SCC(=O)Nc3ccc(F)c(F)c3)n2N)n[nH]1

>  <ASSIGNED_CLASS>
1.0

$$$$
>  <COMPOUND_STRUCTURE>
COCc1cc(C)nc(SCC(=O)Nc2ccc3c(c2)n(C)c(=O)n3C)c1C#N

>  <ASSIGNED_CLASS>
1.0

$$$$
>  <COMPOUND_STRUCTURE>
CCOc1c(Br)cc(/C=C2\C(=O)N(CCC#N)N=C2C)cc1OC

>  <ASSIGNED_CLASS>
1.0

$$$$
>  <COMPOUND_STRUCTURE>
CCN(CC)c1cccc(OC2=NS(=O)(=O)c3ccccc32)c1

>  <ASSIGNED_CLASS>
0.0

$$$$
>  <COMPOUND_STRUCTURE>
CC(=O)Nc1c2c3c(cccc3n(C)c1=O)C(=O)c1ccccc1-2

>  <ASSIGNED_CLASS>
0.0

$$$$
>  <COMPOUND_STRUCTURE>
O=c1cc(-c2ccc(F)cc2)[nH][nH]1

>  <ASSIGNED_CLASS>
1.0

$$$$
>  <COMPOUND_STRUCTURE>
Cn1c(SCC(=O)N/N=C/C=C/c2ccco2)nc2ccccc21

>  <ASSIGNED_CLASS>
1.0

$$$$
>  <COMPOUND_STRUCTURE>
O=[N+]([O-])c1ccc2nc(-c3ccccc3)n(OCc3ccc(Cl)cc3)c2c1

>  <ASSIGNED_CLASS>
0.0

$$$$
>  <COMPOUND_STRUCTURE>
c1ccc(CCn2c3ccccc3c3nnc(SCc4ccc5nonc5c4)nc32)cc1

>  <ASSIGNED_CLASS>
1.0

$$$$

====

Listing of entries alongside the reported inhibition.
# TGT: Protein-arginine deiminase type-1 (Homo sapiens) (UniProt Q9ULC6)
# Sequence (Q9ULC6 whole entry, looked up): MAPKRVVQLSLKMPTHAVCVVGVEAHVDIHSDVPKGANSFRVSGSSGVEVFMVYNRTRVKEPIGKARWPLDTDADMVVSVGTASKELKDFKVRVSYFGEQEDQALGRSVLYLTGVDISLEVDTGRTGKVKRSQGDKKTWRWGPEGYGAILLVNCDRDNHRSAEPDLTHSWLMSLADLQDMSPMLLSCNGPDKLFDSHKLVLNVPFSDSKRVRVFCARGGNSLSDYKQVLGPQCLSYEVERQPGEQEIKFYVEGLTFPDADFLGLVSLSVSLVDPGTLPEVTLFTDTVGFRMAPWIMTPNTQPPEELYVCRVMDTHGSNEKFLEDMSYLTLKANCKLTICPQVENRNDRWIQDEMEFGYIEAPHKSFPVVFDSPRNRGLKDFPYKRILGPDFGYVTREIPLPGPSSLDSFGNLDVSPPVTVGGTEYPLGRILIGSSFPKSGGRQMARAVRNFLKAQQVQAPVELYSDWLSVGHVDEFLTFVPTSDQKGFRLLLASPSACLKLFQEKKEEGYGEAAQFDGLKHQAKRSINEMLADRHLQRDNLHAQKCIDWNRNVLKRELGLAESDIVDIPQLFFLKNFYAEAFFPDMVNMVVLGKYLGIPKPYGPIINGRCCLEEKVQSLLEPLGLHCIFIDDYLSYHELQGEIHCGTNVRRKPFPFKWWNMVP
# RUN_DESCRIPTION: PAD1-4 inhibition by competitive ABPP, late-stage follow-up, orthogonal assay for PAD4 inhibitor project, biochemical, fluorescence, gel-based ABPP, HTS hits (AID 588487)
# MEASUREMENT_CONDITIONS: recombinant PAD1-4, gel-based ABPP, RFA probe fluorescence; PAD1; at 10 µM; stronger effect = higher value

>  <MOLECULE>
COc1cccc(NC(=O)C2c3cc(OC)c(OC)cc3C(=O)N(C)C2c2cccnc2)c1 (stereo not drawn)

>  <UNIT_NAME>
%

>  <inhibition>
15

$$$$
>  <MOLECULE>
Cc1ccc(-c2nc3sc(C#N)c(N)n3c(=O)c2C#N)cc1

>  <UNIT_NAME>
%

>  <inhibition>
32

$$$$
>  <MOLECULE>
O=c1cc(-c2cccc([N+](=O)[O-])c2)[nH][nH]1

>  <UNIT_NAME>
%

>  <inhibition>
24

$$$$
